Test system: HIV in the HTLV-1 transformed cell line MT-4
experiment-notes: organism not typed
Format: cell-based
settings: MT4, 96 h, MT-4 cells; luciferase/cell titer glo readout after 96 hours; 10 point dose response

| compound | IC50 |
| --- | --- |
| Cc1ncccc1C(=O)N1Cc2c(C)c(-c3cc(F)c4c(c3C)CCCO4)c([C@H](OC(C)(C)C)C(=O)O)c(C)c2C1 (atropisomer, axis not shown; (M)) | 31 nM |
| COc1ccc(C(=O)N2Cc3c(C)c(-c4cc(F)c5c(c4C)CCCO5)c([C@H](OC(C)(C)C)C(=O)O)c(C)c3C2)cc1 (atropisomer, axis not shown; (M)) | 2 nM |
| Cc1c(-c2c(C)c3c(c(C)c2[C@H](OC(C)(C)C)C(=O)O)CN(Cc2cccc4c2OCO4)C3)cc(F)c2c1CCCO2 (atropisomer, axis not shown; (M)) | 4 nM |
| Cc1cc(C)cc(C(=O)N2Cc3c(C)c(-c4cc(F)c5c(c4C)CCCO5)c([C@H](OC(C)(C)C)C(=O)O)c(C)c3C2)c1 (atropisomer, axis not shown; (M)) | 2 nM |
| Cc1c2c(c(C)c([C@H](OC(C)(C)C)C(=O)O)c1-c1ccc(Cl)cc1)CN(C(=O)CC(C)(C)C)C2 | 23 nM |
| Cc1ccc(-c2c(C)c3c(c(C)c2[C@H](OC(C)(C)C)C(=O)O)CN(C(=O)c2ccccc2C)C3)cc1 | 4 nM |
| COc1cccc(C(=O)N2Cc3c(C)c(-c4ccc(C)cc4)c([C@H](OC(C)(C)C)C(=O)O)c(C)c3C2)c1C | 15 nM |
| Cc1ccc(-c2c(C)c3c(c(C)c2C(OC(C)(C)C)C(=O)O)CN(Cc2ccc(F)cc2)C3)cc1 (stereo not drawn) | 35 nM |
| COc1cccc(C(=O)N2Cc3c(C)c(-c4cc(F)c5c(c4C)CCCO5)c([C@H](OC(C)(C)C)C(=O)O)c(C)c3C2)c1 (atropisomer, axis not shown; (M)) | 2 nM |
| COc1ccc(C(=O)N2Cc3c(C)c(-c4cc(F)c5c(c4C)CCCO5)c([C@H](OC(C)(C)C)C(=O)O)c(C)c3C2)cc1C (atropisomer, axis not shown; (M)) | 5 nM |
| Cc1ccc(-c2c(C)c3c(c(C)c2[C@H](OC(C)(C)C)C(=O)O)CN(C(=O)N2CCOC[C@H]2C)C3)cc1 | 16 nM |
| Cc1ccc(-c2c(C)c3c(c(C)c2[C@H](OC(C)(C)C)C(=O)O)CN(C(=O)c2cocn2)C3)cc1 | 86 nM |

---

Tested on: HIV in the HTLV-1 transformed cell line MT-4
experiment-notes: organism not typed
Assay type: cell-based
settings: MT4, 96 h, MT-4 cells; luciferase/cell titer glo readout after 96 hours; 10 point dose response
pIC50: −log10 of the molar value.

| compound | pIC50 |
| --- | --- |
| Cc1c(-c2c(C)c3c(c(C)c2[C@H](OC(C)(C)C)C(=O)O)CN(S(=O)(=O)c2cccc(F)c2)C3)cc(F)c2c1CCCO2 (atropisomer, axis not shown; (M)) [Example 218] | 7.96 |
| CC(=O)N1CCN(C(=O)N2Cc3c(C)c(-c4ccc(C)cc4)c([C@H](OC(C)(C)C)C(=O)O)c(C)c3C2)CC1 [Example 85] | 6.92 |
| Cc1ccc(-c2c(C)c3c(c(C)c2[C@H](OC(C)(C)C)C(=O)O)CN(C(=O)c2cc(C)cc(F)c2)C3)cc1 [Example 123] | 8.40 |
| Cc1ccc(-c2c(C)c3c(c(C)c2[C@H](OC(C)(C)C)C(=O)O)CN(C(=O)c2cccc4c2OCO4)C3)c(Cl)c1 [Example 309] | 8.40 |
| COc1cc(C)ccc1C(=O)N1Cc2c(C)c(-c3cc(F)c4c(c3C)CCCO4)c([C@H](OC(C)(C)C)C(=O)O)c(C)c2C1 (atropisomer, axis not shown; (M)) [Example 200] | 7.96 |
| Cc1ccc(-c2c(C)c3c(c(C)c2[C@H](OC(C)(C)C)C(=O)O)CN(Cc2cccc(C(F)(F)F)c2)C3)cc1 [Example 28] | 7.03 |

---

System: HIV in the HTLV-1 transformed cell line MT-4
experiment-notes: organism not typed
Assay type: cell-based
settings: MT4, 96 h, MT-4 cells; luciferase/cell titer glo readout after 96 hours; 10 point dose response
pIC50: −log10 of the molar value.
Reported pIC50 values are given for each entry in this list.
measured-metric: pIC50

| molecule | test-system | result |
| --- | --- | --- |
| Cc1c(-c2c(C)c3c(c(C)c2[C@H](OC(C)(C)C)C(=O)O)CN(C(=O)c2ccc(F)c(Cl)c2)C3)cc(F)c2c1CCCO2 (atropisomer, axis not shown; (M)) | HIV in the HTLV-1 transformed cell line MT-4 | 8.70 |
| Cc1ccc(-c2c(C)c3c(c(C)c2[C@H](OC(C)(C)C)C(=O)O)CN(Cc2ccc(Cl)c(Cl)c2)C3)cc1 | HIV in the HTLV-1 transformed cell line MT-4 | 7.27 |
| Cc1ccc(-c2c(C)c3c(c(C)c2[C@H](OC(C)(C)C)C(=O)O)CN(C(=O)c2cc(F)c(Cl)c(F)c2)C3)cc1 | HIV in the HTLV-1 transformed cell line MT-4 | 8.15 |

---

Below, each entry is listed alongside its reported IC50.
Tested on: HIV in the HTLV-1 transformed cell line MT-4
experiment-notes: organism not typed
Type: cell-based
settings: MT4, 96 h, MT-4 cells; luciferase/cell titer glo readout after 96 hours; 10 point dose response

| compound | test-system | unit-symbol | IC50 |
| --- | --- | --- | --- |
| Cc1c(-c2c(C)c3c(c(C)c2[C@H](OC(C)(C)C)C(=O)O)CN(C(=O)c2cc(F)ccc2F)C3)cc(F)c2c1CCCO2 (atropisomer, axis not shown; (M)) | HIV in the HTLV-1 transformed cell line MT-4 | nM | 2 |
| Cc1c(-c2c(C)c3c(c(C)c2[C@H](OC(C)(C)C)C(=O)O)CN(C(=O)N2CCCC(C)(C)CC2)C3)cc(F)c2c1CCCO2 (atropisomer, axis not shown; (M)) | HIV in the HTLV-1 transformed cell line MT-4 | nM | 5 |
| Cc1ccc(-c2c(C)c3c(c(C)c2C(OC(C)(C)C)C(=O)O)CN(S(C)(=O)=O)C3)cc1 (stereo not drawn) | HIV in the HTLV-1 transformed cell line MT-4 | nM | 2130 |
| Cc1ccc(-c2c(C)c3c(c(C)c2[C@H](OC(C)(C)C)C(=O)O)CN(C(=O)c2cc(F)cc(Cl)c2)C3)cc1 | HIV in the HTLV-1 transformed cell line MT-4 | nM | 5 |
| Cc1ccc(-c2c(C)c3c(c(C)c2[C@H](OC(C)(C)C)C(=O)O)CN(C(=O)Cc2cccc(F)c2)C3)cc1 | HIV in the HTLV-1 transformed cell line MT-4 | nM | 12 |
| Cc1c(-c2c(C)c3c(c(C)c2[C@H](OC(C)(C)C)C(=O)O)CN(C(=O)c2cccc4ccccc24)C3)cc(F)c2c1CCCO2 (atropisomer, axis not shown; (M)) | HIV in the HTLV-1 transformed cell line MT-4 | nM | 11 |
| Cc1ccc(-c2c(C)c3c(c(C)c2[C@H](OC(C)(C)C)C(=O)O)CN(C(=O)N2CCC(F)(F)CC2)C3)cc1 | HIV in the HTLV-1 transformed cell line MT-4 | nM | 16 |
| Cc1c(-c2c(C)c3c(c(C)c2[C@H](OC(C)(C)C)C(=O)O)CN(C(=O)c2ccccc2C(C)(C)C)C3)cc(F)c2c1CCCO2 (atropisomer, axis not shown; (M)) | HIV in the HTLV-1 transformed cell line MT-4 | nM | 48 |
| Cc1ccc(-c2c(C)c3c(c(C)c2[C@H](OC(C)(C)C)C(=O)O)CN(C(=O)N2CCC(F)CC2)C3)cc1 | HIV in the HTLV-1 transformed cell line MT-4 | nM | 11 |
| Cc1ccc(-c2c(C)c3c(c(C)c2[C@H](OC(C)(C)C)C(=O)O)CN(S(=O)(=O)N2CCCCC2)C3)cc1 | HIV in the HTLV-1 transformed cell line MT-4 | nM | 29 |
| Cc1ccc(-c2c(C)c3c(c(C)c2[C@H](OC(C)(C)C)C(=O)O)CN(C(=O)c2cncs2)C3)cc1 | HIV in the HTLV-1 transformed cell line MT-4 | nM | 116 |
| Cc1ccc(-c2c(C)c3c(c(C)c2C(OC(C)(C)C)C(=O)O)CN(Cc2ccccc2)C3)cc1 (stereo not drawn) | HIV in the HTLV-1 transformed cell line MT-4 | nM | 98 |
| Cc1ccc(-c2c(C)c3c(c(C)c2[C@H](OC(C)(C)C)C(=O)O)CN(C(=O)N2CCC(C)CC2)C3)cc1 | HIV in the HTLV-1 transformed cell line MT-4 | nM | 16 |
| COc1ccc(F)c(C(=O)N2Cc3c(C)c(-c4cc(F)c5c(c4C)CCCO5)c([C@H](OC(C)(C)C)C(=O)O)c(C)c3C2)c1 (atropisomer, axis not shown; (M)) | HIV in the HTLV-1 transformed cell line MT-4 | nM | 4 |
| Cc1c(-c2c(C)c3c(c(C)c2[C@H](OC(C)(C)C)C(=O)O)CN(C(=O)c2cccc(F)c2)C3)cc(F)c2c1NCCO2 (atropisomer, axis not shown; (M)) | HIV in the HTLV-1 transformed cell line MT-4 | nM | 5 |
| Cc1ccc(-c2c(C)c3c(c(C)c2[C@H](OC(C)(C)C)C(=O)O)CN(C(=O)c2cccc4c2OCC4)C3)cc1 | HIV in the HTLV-1 transformed cell line MT-4 | nM | 4 |
| Cc1ccc(-c2c(C)c3c(c(C)c2[C@H](OC(C)(C)C)C(=O)O)CN(C(=O)N2CCC(C)(C)CC2)C3)cc1 | HIV in the HTLV-1 transformed cell line MT-4 | nM | 11 |
| Cc1ccc(-c2c(C)c3c(c(C)c2[C@H](OC(C)(C)C)C(=O)O)CN(Cc2ccccc2F)C3)cc1 | HIV in the HTLV-1 transformed cell line MT-4 | nM | 40 |
| Cc1c(-c2c(C)c3c(c(C)c2[C@H](OC(C)(C)C)C(=O)O)CN(C(=O)c2cccc4ccoc24)C3)cc(F)c2c1CCCO2 (atropisomer, axis not shown; (M)) | HIV in the HTLV-1 transformed cell line MT-4 | nM | 2 |
| Cc1ccc(-c2c(C)c3c(c(C)c2[C@H](OC(C)(C)C)C(=O)O)CN(Cc2cccc(F)c2C)C3)cc1 | HIV in the HTLV-1 transformed cell line MT-4 | nM | 44 |
| Cc1ccc(-c2c(C)c3c(c(C)c2[C@H](OC(C)(C)C)C(=O)O)CN(C(=O)NCCOCc2ccccc2)C3)cc1 | HIV in the HTLV-1 transformed cell line MT-4 | nM | 231 |
| Cc1ccc(-c2c(C)c3c(c(C)c2[C@H](OC(C)(C)C)C(=O)O)CN(C(=O)c2cccc(F)c2F)C3)cc1 | HIV in the HTLV-1 transformed cell line MT-4 | nM | 3 |
| Cc1c(-c2c(C)c3c(c(C)c2[C@H](OC(C)(C)C)C(=O)O)CN(C(=O)c2cccc(F)c2)C3)cc(F)c2c1CCCO2 (atropisomer, axis not shown; (M)) | HIV in the HTLV-1 transformed cell line MT-4 | nM | 2 |
| Cc1ccc(-c2c(C)c3c(c(C)c2[C@H](OC(C)(C)C)C(=O)O)CN(Cc2ccc(Cl)cc2)C3)cc1 | HIV in the HTLV-1 transformed cell line MT-4 | nM | 75 |
